- Tested on: erythroid progenitor cells (EPCs)
- Protocol Text: Fetal hemoglobin (HbF) ELISA in day 7 erythroid progenitor cells;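 note: for fetal hemoglobin induction normalized to vehicle-treated cells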
- Type: cell-based, human
- Conditions: Homo sapiens, Erythroid progenitor cell, HbF ELISA, day 7 EPCs, 5 days; read-out: EPC ELISA (pEC50 category) (converted)
The entries below come with measured EC50 values attached.

- CCc1c(C#N)c(N[C@@H](C(N)=O)c2ccccc2)nc(N2CCCN(CC)CC2)c1C#N [Example 162]: 1000 to 31600 nM
- CCc1c(C#N)c(SC(C(N)=O)c2ccccc2)nc(N2C[C@@H](C)N[C@@H](C)C2)c1C#N (stereo partly shown) [Example 61]: < 316 nM
- CCc1c(C#N)c(SC(C(N)=O)c2ccccc2)nc(N(C)CCNC(=O)C(C)(C)N)c1C#N (stereo not shown) [Example 627]: < 316 nM
- CCc1c(C#N)c(SC(C(N)=O)c2ccccc2)nc(N(C)CCN2[C@H](C)CC[C@H]2C)c1C#N (stereo partly shown) [Example 485]: < 316 nM

Query block: Tell me its EC50 on erythroid progenitor cells (EPCs): CCc1c(C#N)c(SCc2ccc3[nH]ccc3c2)nc(N2CCC(N3CCCC3)CC2)c1C#N [Example 344]
Result block: 1000 to 31600 nM

Query block: Tell me its EC50 on erythroid progenitor cells (EPCs): CCc1c(C#N)c(SC(C(N)=O)c2ccc(C(=O)c3ccccc3)cc2)nc(N2CCCN(CCO)CC2)c1C#N (stereo not shown) [Example 245]
Result block: 316 to 1000 nM

Query block: Tell me its EC50 on erythroid progenitor cells (EPCs): CCc1c(C#N)c(SCc2ccc(NS(C)(=O)=O)nc2)nc(N2CCCN(C)CC2)c1C#N [Example 335]
Result block: > 31600 nM

Query block: Tell me its EC50 on erythroid progenitor cells (EPCs): CCc1c(C#N)c(SCc2ccc(CC(=O)NC)cc2)nc(N2CCCN(C)CC2)c1C#N [Example 84]
Result block: < 316 nM
